Where do these numbers come from? They come from PubChem BioAssay (NCI).

# System: IGROV1 ovarian
# Protocol: NCI tumour cell line growth inhibition, 48 h
*1 amine or outer side, *2 acyl side, *3 side chain or, on linkers, in order; H or OH if unused. Where a SMILES comes first, the peptide text is derived from it. Bridges are numbered along the chain shown (N, C = ends). [ ]: non-standard residue; d: D form. The star is where a group is joined. ξ: configuration not given here. X34 = O=C(C(CCCCNO[*:3])N[*:1])[*:2]; Fmoc = O=C(OCC1c2ccccc2-c2ccccc21)*; ξW = NC(Cc1c[nH]c2ccccc12)C(=O)O; ξP = O=C(O)C1CCCN1
# reported TGI; entries follow

[[record]]
compound = "O=C(O)Cn1ccc(=O)c2ccc([N+](=O)[O-])cc21"
measurement_target = "IGROV1 ovarian"
endpoint_result = "> 100 µM"

[[record]]
compound = "NC(=O)CNC(=O)C1CCCN1C(=O)C1CCCCNOC(=O)CC[C@@H](NC(=O)OCC2c3ccccc3-c3ccccc32)C(=O)NC(Cc2c[nH]c3ccccc23)C(=O)N1 (some centres undefined) (Fmoc-[dE][ξW][X34][ξP]G-NH2; ester 1-3)"
measurement_target = "IGROV1 ovarian"
endpoint_result = "> 100 µM"

[[record]]
compound = "CN(C)CCC(=O)N1C/C(=C/c2ccccc2)C(=O)/C(=C\\c2ccccc2)C1"
measurement_target = "IGROV1 ovarian"
endpoint_result = "7.02 µM"


Proceeding to the next compound to report its TGI.
**Q:** Give reported TGI value for CC(=O)Nc1ccccc1Sc1ccccc1
**A:** > 100 µM

----------
# reported TGI; entries follow
# Tested on: NCI-H522 lung
# Protocol: NCI tumour cell line growth inhibition, 48 h
Report the figure in µM without appending any unit label.

Here are 5 compounds together with their reported answers.
[[record]]
compound = "O=C(O)CN(CCNC(=O)OCC1c2ccccc2-c2ccccc21)CCNC(=O)OCC1c2ccccc2-c2ccccc21"
quantity_kind = "TGI"
output_unit = "µM"
endpoint_result = 32.3

[[record]]
compound = "CC(C)Sc1nc(C#N)cc2c1CCCC2"
quantity_kind = "TGI"
output_unit = "µM"
endpoint_result = 78.4

[[record]]
compound = "CCCCCCCCCCCC(=O)CC(=O)c1c(O)cccc1O"
quantity_kind = "TGI"
output_unit = "µM"
endpoint_result = 65.3

[[record]]
compound = "CNC(=O)OCc1c(COC(=O)NC)c(-c2ccc(Cl)c(Cl)c2)n2c1SCC2"
quantity_kind = "TGI"
output_unit = "µM"
endpoint_result = 21.5

[[record]]
compound = "CSc1nc(Cl)c2c(n1)Sc1nc3cc4c(cc3n1C2O)OCCO4 (configuration not stated)"
quantity_kind = "TGI"
output_unit = "µM"
endpoint_result = 0.386


**Q:** Give reported TGI value for CCNCCNc1cc(-c2ccc(C(=O)OC)cc2)c(C#N)c2nc3ccccc3n12
**A:** 4.52

**Q:** Give reported TGI value for COc1cccc(/C=N/NC(=O)c2ccccc2Nc2ccnc(C(F)(F)F)c2)c1O
**A:** 46.1

**Q:** Give reported TGI value for CSc1ccc(C2=NN(C(C)=O)C(c3cc(C)cs3)C2)cc1 (configuration not stated)
**A:** 74.9

**Q:** Give reported TGI value for Cc1cc(N(CCOS(C)(=O)=O)CCOS(C)(=O)=O)ccc1C=Nc1ccc(-c2nc(Cc3ccccc3)sc2C)cc1
**A:** 0.648

**Q:** Give reported TGI value for COc1cccc2c(N)c3cccc(C(=O)NCCN(C)C)c3nc12
**A:** 0.149
